system: KRAS signaling (pMEK and pAKT); test: Immunoblot of downstream surrogates of KRAS signaling in NIH3T3 cells expressing dTAG-KRAS; assay type: cell-based; conditions: read-out: IC50 of inhibition of downstream signaling; NIH3T3 FKBP*-KRASG12V, 24 hours
Quantity kind: IC50

I have this molecule here, CC[C@H](C(=O)N1CCCC[C@H]1C(=O)O[C@H](CCc1ccc(OC)c(OC)c1)c1cccc(OCC(=O)NCCCCCCOc2cccc3c2C(=O)N(C2CCC(=O)NC2=O)C3=O)c1)c1cc(OC)c(OC)c(OC)c1 (stereo partly shown) , and I need its recorded IC50.
> 100 nM
